assay: Measurement of Sodium Ion Channel Blocking Effects: In order to measure the sodium ion channel blocking effect, an IonFlux16 Auto patch clamp system (Fluxion, Inc.) and a plate for exclusive use were used. The cells were distributed in an extracellular solution (4 mM KCl, 138 mM NaCl, 1 mM MgCl2, 1.8 mM CaCl2, 5.6 mM glucose, 10 mM HEPES, pH 7.45), and then dispensed in the specified region of the plate, and each of the prepared compound samples was diluted at various concentrations, and then dispensed in the specified region of the plate.; format: cell-based
readout label: IC50 (nM)

Solved cases (4 shown):
CNCCN(C)c1cc(C(F)(F)F)ccc1Nc1cc(F)c(S(=O)(=O)Nc2ccc(F)cn2)cc1Cl
50
CN[C@@H]1CCCN(c2cc(F)ccc2Nc2cc(F)c(S(=O)(=O)Nc3cscn3)cc2Cl)C1
66
CNC1CCN(c2cc(F)ccc2Nc2ccc(S(=O)(=O)Nc3cscn3)c(F)c2)C1 (configuration not stated)
372
CN[C@H]1CCN(c2cc(C(F)(F)F)ccc2Nc2cc(F)c(S(=O)(=O)Nc3cscn3)cc2Cl)C1
23

[1] CNCCN(C)c1cc(C(F)(F)F)ccc1Nc1cc(F)c(S(=O)(=O)Nc2ccccn2)cc1Cl
[2] CN[C@H]1CCN(c2cc(C(F)(F)F)ccc2Nc2ccc(S(=O)(=O)Nc3cscn3)cc2Cl)C1
[3] CNCCN(C)c1ccccc1Nc1cc(F)c(S(=O)(=O)Nc2cscn2)cc1Cl
[4] CNCCN(C)c1cc(C#N)ccc1Nc1cc(F)c(S(=O)(=O)Nc2cscn2)cc1Cl
[5] CC(=O)N[C@@H]1CCN(c2cc(C(F)(F)F)ccc2Nc2cc(F)c(S(=O)(=O)Nc3cscn3)cc2Cl)C1
Query: Sort entries by IC50 from minimum to maximum value. Write the labels in rank order as requested.
Result: 2, 3, 1, 4, 5

* * *

assay: Measurement of Sodium Ion Channel Blocking Effects: In order to measure the sodium ion channel blocking effect, an IonFlux16 Auto patch clamp system (Fluxion, Inc.) and a plate for exclusive use were used. The cells were distributed in an extracellular solution (4 mM KCl, 138 mM NaCl, 1 mM MgCl2, 1.8 mM CaCl2, 5.6 mM glucose, 10 mM HEPES, pH 7.45), and then dispensed in the specified region of the plate, and each of the prepared compound samples was diluted at various concentrations, and then dispensed in the specified region of the plate.; assay type: cell-based
readout label: IC50 (nM)

CN[C@H]1CCN(c2cc(F)ccc2Nc2cc(F)c(S(=O)(=O)Nc3cscn3)cc2Cl)C1
50

[P] CN[C@H]1CCN(c2cc(F)ccc2Nc2ccc(S(=O)(=O)Nc3cscn3)c(F)c2)C1
[Q] CNC1CCN(c2cc(C(F)(F)F)ccc2Nc2ccc(S(=O)(=O)Nc3cscn3)cc2Cl)C1 (centres undefined)
[R] CNCCN(C)c1ccccc1Nc1cc(F)c(S(=O)(=O)Nc2ncc(Cl)s2)cc1Cl
[S] CN[C@@H]1CCCN(c2cc(OC)ccc2Nc2cc(F)c(S(=O)(=O)Nc3cscn3)cc2Cl)C1
[T] CNC1CCN(c2c(F)cccc2Nc2ccc(S(=O)(=O)Nc3cscn3)c(F)c2)C1 (centres undefined)
Query: Rank items: key IC50, increasing. // format: requested-order list of labels
Result: R, Q, S, P, T
(R: 4 nM, Q: 27 nM, S: 73 nM, P: 241 nM, T: 686 nM)
